Some compounds, each annotated with its measured Efficacy (GABA) %.
TARGET_OR_TEST_SYSTEM: h-GABA-A α5β3γ2 (Homo sapiens, UniProt P18507+P31644)
Sequence (P31644 32-462): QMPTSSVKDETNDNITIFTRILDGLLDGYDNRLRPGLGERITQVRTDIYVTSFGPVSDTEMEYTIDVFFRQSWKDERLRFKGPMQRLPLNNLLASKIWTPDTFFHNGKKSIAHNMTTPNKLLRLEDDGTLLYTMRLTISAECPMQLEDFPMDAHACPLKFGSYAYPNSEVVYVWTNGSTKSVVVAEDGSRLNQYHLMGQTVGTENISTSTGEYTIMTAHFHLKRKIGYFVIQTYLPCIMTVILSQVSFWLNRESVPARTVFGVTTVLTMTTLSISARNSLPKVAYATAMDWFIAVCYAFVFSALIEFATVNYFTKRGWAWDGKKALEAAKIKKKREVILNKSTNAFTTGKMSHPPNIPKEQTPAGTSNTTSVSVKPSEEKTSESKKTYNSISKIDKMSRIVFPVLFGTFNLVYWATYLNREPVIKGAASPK
Sequence (P28472 26-473 partner): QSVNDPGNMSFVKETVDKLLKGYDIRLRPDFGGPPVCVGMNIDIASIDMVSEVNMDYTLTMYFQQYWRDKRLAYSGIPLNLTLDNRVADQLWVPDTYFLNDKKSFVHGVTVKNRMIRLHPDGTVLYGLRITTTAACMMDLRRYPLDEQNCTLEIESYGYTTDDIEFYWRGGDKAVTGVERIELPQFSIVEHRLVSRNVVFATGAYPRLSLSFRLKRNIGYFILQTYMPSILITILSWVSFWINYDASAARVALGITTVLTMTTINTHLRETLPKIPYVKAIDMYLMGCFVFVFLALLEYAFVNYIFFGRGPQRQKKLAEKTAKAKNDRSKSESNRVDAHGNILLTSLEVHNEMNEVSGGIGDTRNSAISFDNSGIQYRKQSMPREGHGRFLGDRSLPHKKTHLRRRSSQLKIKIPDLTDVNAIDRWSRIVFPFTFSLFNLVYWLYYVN
Sequence (P18507 40-475): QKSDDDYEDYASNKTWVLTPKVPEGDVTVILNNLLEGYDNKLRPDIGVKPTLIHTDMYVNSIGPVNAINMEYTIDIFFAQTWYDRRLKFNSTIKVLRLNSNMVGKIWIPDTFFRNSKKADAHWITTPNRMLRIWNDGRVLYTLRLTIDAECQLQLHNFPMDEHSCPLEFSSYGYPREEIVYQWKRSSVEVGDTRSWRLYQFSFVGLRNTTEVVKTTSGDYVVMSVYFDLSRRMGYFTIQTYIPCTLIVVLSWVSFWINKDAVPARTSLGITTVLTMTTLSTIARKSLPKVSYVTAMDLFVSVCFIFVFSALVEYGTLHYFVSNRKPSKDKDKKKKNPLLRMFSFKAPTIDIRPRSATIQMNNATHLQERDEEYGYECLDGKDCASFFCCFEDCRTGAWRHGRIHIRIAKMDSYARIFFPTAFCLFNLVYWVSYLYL
TEST: Two-electrode voltage clamp electrophysiology in Xenopus laevis oocytes expressing GABAA receptors, modulation of GABA EC20 current
Assay type: cell-based
Parameters: host or cells: Xenopus laevis oocytes micro-injected with RNA transcripts of the subunits
STATED_CONDITIONS: % modulation of GABA EC20 = 100*(Fold increase-1); Table 1
QUANTITY: Efficacy (GABA) % (%)

>>> numeric_value("Cc1ccc(-c2noc(C)c2Cn2ncc(N3CC(Oc4cccc(F)c4)C3)cc2=O)cn1")
153
>>> numeric_value("Cc1ccc(-c2noc(C)c2Cn2ncc(N3CCC4(CCOCC4)CC3)cc2=O)nn1")
94
>>> numeric_value("COc1cc(-c2cnn(Cc3c(-c4cnc(C)c(F)c4)noc3C)c(=O)c2)ccn1")
75
>>> numeric_value("Cc1ccc(-c2noc(C)c2Cn2ncc(N3CC4CC(C3)O4)cc2=O)cn1")
105
>>> numeric_value("Cc1ccc(-c2noc(C)c2Cn2ncc(-c3cnn(CC(F)F)c3)cc2=O)cn1")
166
